Readings of IC50 at 72 h for the listed compounds
experiment: Cytotoxicity in RAW cells (Resazurin); type: cell-based, murine; settings: mouse; RAW cells, 72 h at 37 °C, Resazurin, triplicate; read-out: Cytotoxicity IC50
quantity-measured: IC50 at 72 h

1) COc1ccc2c(c1)-c1cc(COC(=O)C(C)(C)C)ccc1C(C)(C)O2
19.8 µM
2) COc1ccc2c(c1)-c1cc(CO)ccc1C(C)(C)O2
30.7 µM
3) CCCCCC(=O)OCc1ccc2c(c1)-c1cc(OC)ccc1OC2(C)C
52.1 µM
4) O=C(Cn1ccnc1[N+](=O)[O-])NCc1ccccc1 [Benznidazole, reference compound]
74.7 µM
5) COc1ccc2c(c1)-c1cc(COC(C)C)ccc1C(C)(C)O2
32 µM
